Tested on: breast adenocarcinoma MCF-7
protocol conditions: human, 48 h

| compound | IC50 |
| --- | --- |
| CS(=O)(=O)c1ccc(C(=O)N2N=C(c3ccccc3)CC2c2ccccc2O)cc1 (stereo not shown) [Compound 18h] | 12.5 µM |

====

System: MDA-MB-231
method: cells
protocol conditions: Homo sapiens, MDA-MB-231, 48 h, read-out: In vitro cytotoxicity IC50
Field 'label' (enum: 1 / 0). Set to 1 when IC50 is strictly under 5 µM; else 0.

| molecule | cat |
| --- | --- |
| CS(=O)(=O)c1ccc(C(=O)N2N=C(c3ccccc3)CC2c2ccccc2O)cc1 (centres unmarked) [Compound 18h] | 0 |
| CN(C)C/C=C/C(=O)Nc1cc2c(Nc3ccc(F)c(Cl)c3)ncnc2cc1O[C@H]1CCOC1 [Afatinib, reference compound] | 0 |
| Cc1ccc(C2=NN(C(=O)c3ccc(S(C)(=O)=O)cc3)C(c3ccc(C)cc3)C2)cc1 (centres unmarked) [Compound 18g] | 1 |
| CS(=O)(=O)c1ccc(C(=O)N2N=C(c3ccccc3)CC2c2ccc(F)cc2)cc1 (centres unmarked) [Compound 18c] | 0 |
